# dH per entry
target: IsdH linker-NEAT3 (Staphylococcus aureus Mu50, UniProt Q931P4); assay: ITC; conditions: both partners purified
Sequence (Q931P4 476-664): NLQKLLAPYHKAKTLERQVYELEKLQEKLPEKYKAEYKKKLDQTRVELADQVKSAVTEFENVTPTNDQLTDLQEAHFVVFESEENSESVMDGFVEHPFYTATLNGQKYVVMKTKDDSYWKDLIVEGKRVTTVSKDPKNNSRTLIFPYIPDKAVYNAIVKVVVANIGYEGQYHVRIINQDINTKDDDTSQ
readoutType: dH (kcal/mol)

binder: VHH6 Y57A (VHH, source: E. coli BL21(DE3), purified as the WT (Ni-NTA, SEC)) VHH: ELQLVESGGGLVQPGGSLSLSCEVSGFSFDDVDNFIIAWFRQAPGKEREGVSFLRKADMSTYYAESVKGRFTISSDNARDTVYLQMTNLKPEDTAVYYCALDREGFVFEQGMDFWGKGTQVTVSS
obsValue: -9.7
--
binder: VHH6 R55A (VHH, source: E. coli BL21(DE3), purified as the WT (Ni-NTA, SEC)) VHH: ELQLVESGGGLVQPGGSLSLSCEVSGFSFDDVDNFIIAWFRQAPGKEREGVSFLAKYDMSTYYAESVKGRFTISSDNARDTVYLQMTNLKPEDTAVYYCALDREGFVFEQGMDFWGKGTQVTVSS
obsValue: -15.9
--
binder: VHH6 E104A (VHH, source: E. coli BL21(DE3), purified as the WT (Ni-NTA, SEC)) VHH: ELQLVESGGGLVQPGGSLSLSCEVSGFSFDDVDNFIIAWFRQAPGKEREGVSFLRKYDMSTYYAESVKGRFTISSDNARDTVYLQMTNLKPEDTAVYYCALDRAGFVFEQGMDFWGKGTQVTVSS
obsValue: -13.6
--
binder: VHH6 Y62A (VHH, source: E. coli BL21(DE3), purified as the WT (Ni-NTA, SEC)) VHH: ELQLVESGGGLVQPGGSLSLSCEVSGFSFDDVDNFIIAWFRQAPGKEREGVSFLRKYDMSTAYAESVKGRFTISSDNARDTVYLQMTNLKPEDTAVYYCALDREGFVFEQGMDFWGKGTQVTVSS
obsValue: -11.1
--
binder: VHH6 F106A (VHH, source: E. coli BL21(DE3), purified as the WT (Ni-NTA, SEC)) VHH: ELQLVESGGGLVQPGGSLSLSCEVSGFSFDDVDNFIIAWFRQAPGKEREGVSFLRKYDMSTYYAESVKGRFTISSDNARDTVYLQMTNLKPEDTAVYYCALDREGAVFEQGMDFWGKGTQVTVSS
obsValue: -16.6
--
binder: VHH6 F108A (VHH, source: E. coli BL21(DE3), purified as the WT (Ni-NTA, SEC)) VHH: ELQLVESGGGLVQPGGSLSLSCEVSGFSFDDVDNFIIAWFRQAPGKEREGVSFLRKYDMSTYYAESVKGRFTISSDNARDTVYLQMTNLKPEDTAVYYCALDREGFVAEQGMDFWGKGTQVTVSS
obsValue: -19.3
--
binder: VHH6 V107A (VHH, source: E. coli BL21(DE3), purified as the WT (Ni-NTA, SEC)) VHH: ELQLVESGGGLVQPGGSLSLSCEVSGFSFDDVDNFIIAWFRQAPGKEREGVSFLRKYDMSTYYAESVKGRFTISSDNARDTVYLQMTNLKPEDTAVYYCALDREGFAFEQGMDFWGKGTQVTVSS
obsValue: -15.9
--
binder: VHH6 D33A (VHH, source: E. coli BL21(DE3), purified as the WT (Ni-NTA, SEC)) VHH: ELQLVESGGGLVQPGGSLSLSCEVSGFSFDDVANFIIAWFRQAPGKEREGVSFLRKYDMSTYYAESVKGRFTISSDNARDTVYLQMTNLKPEDTAVYYCALDREGFVFEQGMDFWGKGTQVTVSS
obsValue: -14.7
